Known survival at 96 h, 160 µM of a selection of molecules
experiment: Acute toxicity in zebrafish embryo assessed as survival rate at 160 uM measured after 96 hrs post fertilization relative to control; parameters: species or system Danio rerio; conditions: in vivo
The response must be a number in % with no trailing unit.

Study these solved cases before continuing.
compound_structure_string=CCCCCCCCCCCC1=C(O)C(=O)C(CC)=C(O)C1=O test_readout="survival at 96 h, 160 µM" measured_value=70
compound_structure_string=CCCCCCCCCCCC1=C(O)C(=O)C(Cc2ccc(O)cc2)=C(O)C1=O test_readout="survival at 96 h, 160 µM" measured_value=70
compound_structure_string=CCCCCCCCCCCC1=C(O)C(=O)C(Cc2ccccc2)=C(O)C1=O test_readout="survival at 96 h, 160 µM" measured_value=70

Lookup: Look up survival at 96 h, 160 µM of CCCCCCCCCCCC1=C(O)C(=O)C(Cc2ccc(N(C)C)cc2)=C(O)C1=O and report it.
Found: 70

Lookup: Look up survival at 96 h, 160 µM of CCCCCCCCCCCC1=C(O)C(=O)C(Cc2ccc(C(C)C)cc2)=C(O)C1=O and report it.
Found: 70

Lookup: Look up survival at 96 h, 160 µM of CCCCCCCCCCCC1=C(O)C(=O)C(Cc2ccccc2C)=C(O)C1=O and report it.
Found: 70

Lookup: Look up survival at 96 h, 160 µM of CCCCCCCCCCCC1=C(O)C(=O)C(Cc2ccc(C)cc2)=C(O)C1=O and report it.
Found: 70

Lookup: Look up survival at 96 h, 160 µM of CCCCCCCCCCCC1=C(O)C(=O)C(Cc2ccc(OC)cc2)=C(O)C1=O and report it.
Found: 70

Lookup: Look up survival at 96 h, 160 µM of CCCCCCCCCCCC1=C(O)C(=O)C(Cc2c(OC)cc(OC)cc2OC)=C(O)C1=O and report it.
Found: 70

Lookup: Look up survival at 96 h, 160 µM of CCCCCCCCCCCC1=C(O)C(=O)C(CC(C)C)=C(O)C1=O and report it.
Found: 70

Lookup: Look up survival at 96 h, 160 µM of CCCCCCCCCCCC1=C(O)C(=O)C(Cc2ccccc2O)=C(O)C1=O and report it.
Found: 70

====

assay: Acute toxicity in zebrafish embryo assessed as morphological changes at upto 160 uM measured after 48 hrs post fertilization relative to control; design: species or system Danio rerio; settings: in vivo
test.readout: Activity

Study these solved cases before continuing.
compound_structure_string=CCCCCCCCCCCC1=C(O)C(=O)C(Cc2c(OC)cc(OC)cc2OC)=C(O)C1=O measured_value=Non-Toxic
compound_structure_string=CCCCCCCCCCCC1=C(O)C(=O)C(Cc2c(Cl)cccc2Cl)=C(O)C1=O measured_value=Non-Toxic
compound_structure_string=CCCCCCCCCCCC1=C(O)C(=O)C(Cc2ccccc2)=C(O)C1=O measured_value=Non-Toxic
compound_structure_string=CCCCCCCCCCCC1=C(O)C(=O)C(CC(C)C)=C(O)C1=O measured_value=Non-Toxic
compound_structure_string=CCCCCCCCCCCC1=C(O)C(=O)C(Cc2ccc(Br)cc2)=C(O)C1=O measured_value=Non-Toxic
compound_structure_string=CCCCCCCCCCCC1=C(O)C(=O)C(Cc2ccc(F)cc2)=C(O)C1=O measured_value=Non-Toxic

Lookup: Look up Activity of CCCCCCCCCCCC1=C(O)C(=O)C(Cc2ccccc2O)=C(O)C1=O and report it.
Found: Non-Toxic

Lookup: Look up Activity of CCCCCCCCCCCC1=C(O)C(=O)C(Cc2ccccc2C#N)=C(O)C1=O and report it.
Found: Non-Toxic

Lookup: Look up Activity of CCCCCCCCCCCC1=C(O)C(=O)C(Cc2ccc(N(C)C)cc2)=C(O)C1=O and report it.
Found: Non-Toxic

Lookup: Look up Activity of CCCCCCCCCCCC1=C(O)C(=O)C(Cc2ccc(Cl)cc2Cl)=C(O)C1=O and report it.
Found: Non-Toxic

====

assay: Acute toxicity in zebrafish embryo assessed as hatching rate at 20 to 160 uM measured after 48 hrs post fertilization relative to control; set-up: species or system Danio rerio; details: in vivo, dose 20-160 µM
test.readout: Activity (%)
The response must be a number in % with no trailing unit.

Study these solved cases before continuing.
compound_structure_string=CCCCCCCCCCCC1=C(O)C(=O)C(Cc2ccccc2)=C(O)C1=O test_readout=Activity measured_value=75.66
compound_structure_string=CCCCCCCCCCCC1=C(O)C(=O)C(Cc2ccc(C#N)cc2)=C(O)C1=O test_readout=Activity measured_value=51.33
compound_structure_string=CCCCCCCCCCCC1=C(O)C(=O)C(Cc2ccc(F)cc2)=C(O)C1=O test_readout=Activity measured_value=51.33
compound_structure_string=CCCCCCCCCCCC1=C(O)C(=O)C(CC(C)C)=C(O)C1=O test_readout=Activity measured_value=75.66

Lookup: Look up Activity of CCCCCCCCCCCC1=C(O)C(=O)C(Cc2ccccc2Cl)=C(O)C1=O and report it.
Found: 51.33

Lookup: Look up Activity of CCCCCCCCCCCC1=C(O)C(=O)C(Cc2ccccc2O)=C(O)C1=O and report it.
Found: 75.66

====

assay: Acute toxicity in zebrafish embryo assessed as morphological changes by measuring short tail at upto 160 uM measured after 96 hrs post fertilization; set-up: species or system Danio rerio; settings: in vivo
test.readout: Activity

compound="CCCCCCCCCCCC1=C(O)C(=O)C=C(O)C1=O [EMBELIN]" measured_value=Toxic
compound=C#Cc1ccc(CC2=C(O)C(=O)C(CCCCCCCCCCC)=C(O)C2=O)cc1 measured_value=Toxic
compound=CCCCCCCCCCCC1=C(O)C(=O)C(Cc2cccc(Oc3ccccc3)c2)=C(O)C1=O measured_value=Toxic
compound=CCCCCCCCCCCC1=C(O)C(=O)C(Cc2ccccc2Cl)=C(O)C1=O measured_value=Toxic

====

experiment: Acute toxicity in zebrafish embryo assessed as hatching rate at 20 to 160 uM measured after 48 hrs post fertilization relative to control; design: species or system Danio rerio; conditions: in vivo, dose 20-160 µM
test.readout: Activity (%)
The response must be a number in % with no trailing unit.

compound_structure_string=CCCCCCCCCCCC1=C(O)C(=O)C(Cc2ccc(Cl)cc2)=C(O)C1=O display_unit=% measured_value=51.33
compound_structure_string=CCCCCCCCCCCC1=C(O)C(=O)C(Cc2ccc(O)cc2)=C(O)C1=O display_unit=% measured_value=75.66
compound_structure_string=CCCCCCCCCCCC1=C(O)C(=O)C(Cc2ccccc2C)=C(O)C1=O display_unit=% measured_value=75.66

Lookup: Look up Activity of CCCCCCCCCCCC1=C(O)C(=O)C(Cc2c(Cl)cccc2Cl)=C(O)C1=O and report it.
Found: 51.33

Lookup: Look up Activity of CCCCCCCCCCCC1=C(O)C(=O)C(Cc2cccc(Oc3ccccc3)c2)=C(O)C1=O and report it.
Found: 75.66

====

Known Activity of a selection of compounds
experiment: Antioxidant activity assessed as ABTS radical scavenging activity after 6 mins by spectrophotometric analysis relative to control; type: functional; parameters: concentration or dose not given beside the values
The response must be a number in % with no trailing unit.

Study these solved cases before continuing.
compound=CCCCCCCCCCCC1=C(O)C(=O)C(Cc2cc(OC)c(OC)c(OC)c2)=C(O)C1=O test_readout=Activity display_unit=% measured_value=80.2
compound=CCCCCCCCCCCC1=C(O)C(=O)C(Cc2ccc(Cl)cc2Cl)=C(O)C1=O test_readout=Activity display_unit=% measured_value=52.1
compound=CCCCCCCCCCCC1=C(O)C(=O)C(Cc2ccc(N(C)C)cc2)=C(O)C1=O test_readout=Activity display_unit=% measured_value=75.1
compound=CCCCCCCCCCCC1=C(O)C(=O)C(Cc2cc(Cl)ccc2Cl)=C(O)C1=O test_readout=Activity display_unit=% measured_value=52.1
compound=CCCCCCCCCCCC1=C(O)C(=O)C(Cc2ccccc2Br)=C(O)C1=O test_readout=Activity display_unit=% measured_value=52.1

Please look at the following compound next.
Lookup: Look up Activity of CCCCCCCCCCCC1=C(O)C(=O)C(Cc2ccc(C(C)C)cc2)=C(O)C1=O and report it.
Found: 87.2

====

assay: Antioxidant activity assessed as ABTS radical scavenging activity after 6 mins by spectrophotometric analysis relative to control; assay type: functional; set-up: concentration or dose not given beside the values
test.readout: Activity
Be sure to follow the number with its unit.

Study these solved cases before continuing.
compound_structure_string=CCCCCCCCCCCC1=C(O)C(=O)C(Cc2ccccc2)=C(O)C1=O measured_value=80.2%
compound_structure_string=CCCCCCCCCCCC1=C(O)C(=O)C(Cc2ccccc2C)=C(O)C1=O measured_value=80.2%
compound_structure_string=CCCCCCCCCCCC1=C(O)C(=O)C=C(O)C1=O measured_value=75.1%

Lookup: Look up Activity of CCCCCCCCCCCC1=C(O)C(=O)C(Cc2ccc(Cl)c(Cl)c2)=C(O)C1=O and report it.
Found: 52.1%

Lookup: Look up Activity of CCCCCCCCCCCC1=C(O)C(=O)C(Cc2ccc(C)cc2)=C(O)C1=O and report it.
Found: 90.3%

Lookup: Look up Activity of CCCCCCCCCCCC1=C(O)C(=O)C(Cc2ccccc2C#N)=C(O)C1=O and report it.
Found: 52.1%

All values here come from ChEMBL document CHEMBL5376016.
